# experimental-target: PD-1/PD-L1 protein/protein interaction (Homo sapiens, UniProt Q9NZQ7)
# Construct: Recombinant human PD-L1 protein (19-238) with a His-tag at the C-terminus; purchased AcroBiosystems PD1-H5229 (PD-L1); PD1-H5257 (PD-1)
# Sequence (Q9NZQ7 19-238): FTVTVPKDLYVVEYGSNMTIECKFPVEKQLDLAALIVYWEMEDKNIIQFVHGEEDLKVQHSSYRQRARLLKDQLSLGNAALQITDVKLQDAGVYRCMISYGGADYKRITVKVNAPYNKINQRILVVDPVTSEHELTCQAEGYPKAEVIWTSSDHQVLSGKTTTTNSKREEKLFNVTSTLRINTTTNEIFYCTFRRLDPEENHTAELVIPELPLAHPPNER
# protocol-text: PD-1/PD-L1 homogenous time-resolved fluorescence (HTRF) binding assay
# assay-setup: HTRF, recombinant human PD-1 (Fc tag) / PD-L1 (His-tag), 25° C., PBS pH 7.4; numeric values; read-out: IC50
pIC50: −log10 of the molar value.
observation-type: pIC50

[[record]]
compound = "COc1cc2oc(-c3cccc(-c4ccccc4)c3C)nc2cc1CN1CCCCC1C(=O)O (stereo not shown)"
experimental_target = "PD-1/PD-L1 protein/protein interaction (Homo sapiens, UniProt Q9NZQ7)"
observation_type = "pIC50"
recorded_measurement = 9.21


###

# experimental-target: PD-1/PD-L1 protein/protein interaction (Homo sapiens, UniProt Q9NZQ7)
# Construct: Recombinant human PD-L1 protein (19-238) with a His-tag at the C-terminus; purchased AcroBiosystems PD1-H5229 (PD-L1); PD1-H5257 (PD-1)
# protocol-text: PD-1/PD-L1 homogenous time-resolved fluorescence (HTRF) binding assay
observation-type: IC50

[[record]]
molecule = "COc1cc2oc(-c3cccc(-c4cccc5c4CCN5C(=O)CCN4CCOCC4)c3C)nc2cc1CN1CCOCC1C(=O)O (stereo not shown) [Compound 38]"
observation_type = "IC50"
recorded_measurement = "< 25 nM"

[[record]]
molecule = "COc1cc2nc(-c3cccc(-c4cccc(OCCCN5CCOCC5)c4)c3C)oc2cc1CN1CCCCC1C(=O)O (stereo not shown) [Compound 34]"
observation_type = "IC50"
recorded_measurement = "< 25 nM"

[[record]]
molecule = "COc1cc2oc(-c3cccc(-c4cccc(CCCN5CCOCC5)c4)c3C)nc2cc1CN1CCCCC1C(=O)O (stereo not shown) [Compound 4]"
observation_type = "IC50"
recorded_measurement = "< 25 nM"

[[record]]
molecule = "COc1cc2oc(-c3cccc(-c4cccc(OCCCN5CCOCC5)c4)c3C)nc2cc1CN1CCCC1C(=O)O (stereo not shown) [Compound 20]"
observation_type = "IC50"
recorded_measurement = "< 25 nM"

[[record]]
molecule = "Cc1c(OCCCN2CCOCC2)cccc1-c1cccc(-c2nc3cc(CN(C)CC(=O)O)c(N(C)C)cc3o2)c1C [Compound 37]"
observation_type = "IC50"
recorded_measurement = "< 25 nM"

[[record]]
molecule = "COc1cc2oc(-c3cccc(-c4cccc(NC(=O)CCN5CCOCC5)c4)c3C)nc2cc1CN1CCOCC1C(=O)O (stereo not shown) [Compound 17]"
observation_type = "IC50"
recorded_measurement = "< 25 nM"

[[record]]
molecule = "COc1cc2sc(-c3cccc(-c4cccc(OCCCN5CCOCC5)c4)c3C)nc2cc1CN1CCCC1C(=O)O (stereo not shown) [Compound 25]"
observation_type = "IC50"
recorded_measurement = "< 25 nM"

[[record]]
molecule = "Cc1c(-c2cccc(OCCCN3CCOCC3)c2)cccc1-c1nc2cc(CN3CCCCC3C(=O)O)c(OCc3ccccn3)cc2o1 (stereo not shown) [Compound 22]"
observation_type = "IC50"
recorded_measurement = "25 to 150 nM"

[[record]]
molecule = "Cc1c(-c2ccccc2)cccc1-c1nc2cc(CN3CCCCC3C(=O)O)c(OC(C)C)cc2o1 (stereo not shown) [Compound 24]"
observation_type = "IC50"
recorded_measurement = "< 25 nM"

[[record]]
molecule = "COc1cc2nc(-c3cccc(-c4cccc(OCCCN5CCOCC5)c4)c3C)sc2cc1CN1CCCCC1C(=O)O (stereo not shown) [Compound 35]"
observation_type = "IC50"
recorded_measurement = "< 25 nM"

[[record]]
molecule = "COc1cc2oc(-c3cccc(-c4cccc(CCCCN5CCOCC5)c4)c3C)nc2cc1CN1CCCCC1C(=O)O (stereo not shown) [Compound 10]"
observation_type = "IC50"
recorded_measurement = "25 to 150 nM"

[[record]]
molecule = "COCCN(C)CCCOc1cccc(-c2cccc(-c3nc4cc(CN5CCCCC5C(=O)O)c(OC)cc4o3)c2C)c1C (stereo not shown) [Compound 31]"
observation_type = "IC50"
recorded_measurement = "< 25 nM"

[[record]]
molecule = "COc1cc2c(cc1CN1CCC(F)(F)CC1C(=O)O)nc(-c1cccc(-c3cccc(OCCCN4CCOCC4)c3)c1C)n2C (stereo not shown) [Compound 15]"
observation_type = "IC50"
recorded_measurement = "25 to 150 nM"

[[record]]
molecule = "COc1cc2oc(-c3cccc(-c4cccc(NC(=O)NCCNCCO)c4)c3C)nc2cc1CN1CCCCC1C(=O)O (stereo not shown) [Compound 5]"
observation_type = "IC50"
recorded_measurement = "25 to 150 nM"

[[record]]
molecule = "COc1cc2c(cc1CN1CCOCC1C(=O)O)nc(-c1cccc(-c3cccc(OCCCN4CCOCC4)c3)c1C)n2C (stereo not shown) [Compound 14]"
observation_type = "IC50"
recorded_measurement = "< 25 nM"

[[record]]
molecule = "COc1cc2oc(-c3cccc(-c4cccc(OCCCN5CCOCC5)c4)c3C)nc2cc1CNC(C)(CO)C(=O)O (stereo not shown) [Compound 21]"
observation_type = "IC50"
recorded_measurement = "< 25 nM"

[[record]]
molecule = "COc1cc2oc(-c3cccc(-c4cccc(/C=C/CCN5CCOCC5)c4C)c3C)nc2cc1CN1CCCCC1C(=O)O (stereo not shown) [Compound 7]"
observation_type = "IC50"
recorded_measurement = "< 25 nM"

[[record]]
molecule = "COc1cc2nc(-c3cccc(-c4cccc(OCCCN5CCOCC5)c4)c3C)n(C)c2cc1CN1CCCCC1C(=O)O (stereo not shown) [Compound 33]"
observation_type = "IC50"
recorded_measurement = "< 25 nM"

[[record]]
molecule = "CCCNC(=O)NCCN(C)CCCOc1cccc(-c2cccc(-c3nc4cc(CN5CCCCC5C(=O)O)c(OC)cc4o3)c2C)c1C (stereo not shown) [Compound 32]"
observation_type = "IC50"
recorded_measurement = "< 25 nM"

[[record]]
molecule = "COc1cc2oc(-c3cccc(-c4cccc(OCCCN(C)CCCCO)c4C)c3C)nc2cc1CN1CCCCC1C(=O)O (stereo not shown) [Compound 29]"
observation_type = "IC50"
recorded_measurement = "< 25 nM"

[[record]]
molecule = "COc1cc2oc(-c3cccc(-c4cccc(NC(=O)CCN5CCOCC5)c4C)c3C)nc2cc1CN1CCCCC1C(=O)O (stereo not shown) [Compound 8]"
observation_type = "IC50"
recorded_measurement = "< 25 nM"

[[record]]
molecule = "COc1cc2oc(-c3cccc(-c4cccc(OCCCN5CCOCC5)c4C)c3C)nc2cc1CN1CCCCC1C(=O)O (stereo not shown) [Compound 3]"
observation_type = "IC50"
recorded_measurement = "1 nM"

[[record]]
molecule = "COc1cc2oc(-c3cccc(-c4cccc(OCCCN5CCOCC5)c4F)c3C)nc2cc1CN1CCCCC1C(=O)O (stereo not shown) [Compound 9]"
observation_type = "IC50"
recorded_measurement = "< 25 nM"

[[record]]
molecule = "COc1cc2oc(-c3cccc(-c4cccc(CC5OC5CN5CCOCC5)c4C)c3C)nc2cc1CN1CCCCC1C(=O)O (stereo not shown) [Compound 27]"
observation_type = "IC50"
recorded_measurement = "25 to 150 nM"

[[record]]
molecule = "COc1cc2oc(-c3cccc(-c4cccc(OCCCN5CCOCC5)c4C#N)c3C)nc2cc1CN1CCOCC1C(=O)O (stereo not shown) [Compound 18]"
observation_type = "IC50"
recorded_measurement = "< 25 nM"

[[record]]
molecule = "COc1cc2oc(-c3cccc(-c4cccc(CC5CC5CN5CCOCC5)c4C)c3C)nc2cc1CN1CCCCC1C(=O)O (stereo not shown) [Compound 28]"
observation_type = "IC50"
recorded_measurement = "25 to 150 nM"

[[record]]
molecule = "COc1cc2oc(-c3cccc(-c4cccc(OCCCN(C)C)c4C)c3C)nc2cc1CN1CCCCC1C(=O)O (stereo not shown) [Compound 30]"
observation_type = "IC50"
recorded_measurement = "< 25 nM"

[[record]]
molecule = "COc1cc2oc(-c3cccc(-c4cccc(C/C=C/CN5CCOCC5)c4C)c3C)nc2cc1CN1CCCCC1C(=O)O (stereo not shown) [Compound 6]"
observation_type = "IC50"
recorded_measurement = "< 25 nM"


// provenance: patent US20210300909A1
